B1: HDV Ribozyme (parent)
chain: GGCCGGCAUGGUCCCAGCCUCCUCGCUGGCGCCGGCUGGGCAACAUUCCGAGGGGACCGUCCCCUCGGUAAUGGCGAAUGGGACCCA

- Variants of: B1
- measurement_protocol: self-cleavage, relative activity (ratio to wild type); higher = more cleavage; co-transcriptional
# binarize self-cleavage: threshold 0.5 inclusive, high side criterion met, low side criterion not met

Worked set:
{"seq": "GGCCGGCAUGGUCCCAGCCUCCUCGCUGGCGCCGGCUGAGCAACAUUCCGAGGGGACCGUCCCCUCGGUAAUGGCGAAAGGGACCCA", "label": "criterion not met"}
{"seq": "GGCCGGCAUGGUCCCAGCCUACUCGCUGGCGCCGGCUGGGCAACAUUCCGAGGGGAGCGUCCCCUCGGUAAUGGCGAAUGGGACCCA", "label": "criterion not met"}
{"seq": "GGCCUGCAUGGUCCCGGCCUCCUCGCUGGCGCCGGCUGGGCAACAUUCCGAGGGGACCGUCCCCUCGGUAAUGGCGAAUGGGACCCA", "label": "criterion not met"}
{"seq": "GCCCGGCAUGGUCCCAGCCUCCUCGCUGGCGCCUGCUGGGCAACAUUCCGAGGGGACCGUCCCCUCGGUAAUGGCGAAUGGGACCCA", "label": "criterion not met"}
{"seq": "GGCCGGCAUGGUCCCAGCCUCCUCGCUGGCGCCGACUGGGCAACAUUCCGAGGGGACCGUCCCCUCGGUACUGGCGAAUGGGACCCA", "label": "criterion not met"}

Check this variant for self-cleavage at or above 0.5: `UGCCGGCAUGGUCCCAGCCUCCUCGCUGGCGCCGGCUGGGCAACAUGCCGAGGGGACCGUCCCCUCGGUAAUGGCGAAUGGGACCCA`
criterion not met

Check this variant for self-cleavage at or above 0.5: `GGCCGGCAUGGUCCCAGCCUCCUCGCUGGCGCCGGCUGGGCAACAUUCCGAGGGGACCGUCCCCUCGGUAAUGCCGAAAGGGACCCA`
criterion not met

Attribution: the RNAGym collection of RNA variant scans (doi:10.7554/elife.80360)
